Molecular target: Cholinesterase (Equus caballus) (UniProt P81908)
Sequence (P81908 whole entry): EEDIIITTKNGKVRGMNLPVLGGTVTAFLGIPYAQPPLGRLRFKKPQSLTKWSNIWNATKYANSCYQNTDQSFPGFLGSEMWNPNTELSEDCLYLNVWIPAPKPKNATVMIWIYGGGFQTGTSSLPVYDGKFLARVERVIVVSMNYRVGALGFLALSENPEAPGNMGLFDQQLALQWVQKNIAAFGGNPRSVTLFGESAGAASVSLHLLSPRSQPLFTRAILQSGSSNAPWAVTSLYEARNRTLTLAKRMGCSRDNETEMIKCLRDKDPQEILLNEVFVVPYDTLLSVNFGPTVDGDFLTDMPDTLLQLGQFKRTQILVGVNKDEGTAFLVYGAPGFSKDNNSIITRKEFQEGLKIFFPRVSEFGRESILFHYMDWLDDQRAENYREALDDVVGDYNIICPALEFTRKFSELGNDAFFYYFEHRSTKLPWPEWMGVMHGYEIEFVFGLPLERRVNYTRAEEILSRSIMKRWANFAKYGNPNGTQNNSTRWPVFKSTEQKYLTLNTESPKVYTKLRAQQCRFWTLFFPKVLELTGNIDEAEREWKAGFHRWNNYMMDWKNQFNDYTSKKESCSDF
Experiment: Inhibition of […] equine serum BuChE at 20 uM using butyryl thiocholine iodide as substrate preincubated for 30 mins followed by substrate addition and measured after 30 mins by spectrophotometry based Ellman's method relative to control
Format: cell-free
Settings: time 60.0 min
Use 1.0 when the recorded inhibition is no lower than 40%; use 0.0 when it is lower.

[[record]]
item_smiles = "COc1cccc(NC(=O)CNC(=O)/C=C/c2ccc(O)c(OC)c2)c1"
subject_of_test = "Cholinesterase (Equus caballus) (UniProt P81908)"
answer_label = 1.0

[[record]]
item_smiles = "COc1cc(/C=C/C(=O)NCC(=O)Nc2ccc(Cl)cc2)ccc1O"
subject_of_test = "Cholinesterase (Equus caballus) (UniProt P81908)"
answer_label = 1.0

[[record]]
item_smiles = "COc1cc(/C=C/C(=O)NCC(=O)Nc2ccc(C)cc2)ccc1O"
subject_of_test = "Cholinesterase (Equus caballus) (UniProt P81908)"
answer_label = 0.0

[[record]]
item_smiles = "COc1cc(/C=C/C(=O)N2CCN(c3ccccc3)CC2)ccc1O"
subject_of_test = "Cholinesterase (Equus caballus) (UniProt P81908)"
answer_label = 0.0


I'd appreciate it if you could say whether `COc1cc(/C=C/C(=O)NCC(=O)Nc2ccc(C(F)(F)F)cc2)ccc1O` has inhibition at least equal to 40%.
0.0

Does inhibition meet or surpass 40% for `COc1cc(/C=C/C(=O)NCC(=O)Nc2ccccc2Cl)ccc1O` ?
1.0

Check the entry `COc1ccc(N2CCN(C(=O)/C=C/c3ccc(O)c(OC)c3)CC2)cc1` : does inhibition equal or exceed 40%?
1.0

Evaluate `COc1cc(/C=C/C(=O)NCC(=O)Nc2cccc(C)c2)ccc1O` : inhibition at minimum 40%?
0.0

State whether the measured inhibition reaches 40%, counting equality as reaching it, for `COc1cc(/C=C/C(=O)NCC(=O)Nc2cccc(C(F)(F)F)c2)ccc1O`
0.0

API: above_or_equal(metric=inhibition, cutoff=40%) for item `COc1cc(/C=C/C(=O)N2CCN(c3cccc([N+](=O)[O-])c3)CC2)ccc1O`
0.0

Given the entry `COc1cc(/C=C/C(=O)NCC(=O)Nc2cccc(F)c2)ccc1O` , answer whether its inhibition meets or surpasses 40%.
0.0

====

Recorded inhibition for the following compounds
Target: UniProtKB P81908
Assay: Inhibition of […] equine serum BuChE at 20 uM using butyryl thiocholine iodide as substrate preincubated for 30 mins followed by substrate addition and measured after 30 mins by spectrophotometry based Ellman's method relative to control
Format: cell-free
Conditions: time 60.0 min
Value expressed in %; do not type the unit.

Please review the following examples before continuing.
[[record]]
item_smiles = "COc1cc(/C=C/C(=O)NCC(=O)Nc2ccc(Br)cc2)ccc1O"
subject_of_test = "UniProtKB P81908"
parameter_measured = "inhibition"
test_value = 39.3

[[record]]
item_smiles = "COc1cc(/C=C/C(=O)NCC(=O)Nc2ccccc2OC)ccc1O"
subject_of_test = "UniProtKB P81908"
parameter_measured = "inhibition"
test_value = 43.3

[[record]]
item_smiles = "COc1cc(/C=C/C(=O)N2CCN(c3ccc(Cl)cc3)CC2)ccc1O"
subject_of_test = "UniProtKB P81908"
parameter_measured = "inhibition"
test_value = 33.2

[[record]]
item_smiles = "COc1cc(/C=C/C(=O)NCC(=O)Nc2ccc(C#N)cc2)ccc1O"
subject_of_test = "UniProtKB P81908"
parameter_measured = "inhibition"
test_value = 35.7

[[record]]
item_smiles = "COc1cc(/C=C/C(=O)NCC(=O)Nc2cccc(Br)c2)ccc1O"
subject_of_test = "UniProtKB P81908"
parameter_measured = "inhibition"
test_value = 36.6


Recorded inhibition for `COc1cccc(N2CCN(C(=O)/C=C/c3ccc(O)c(OC)c3)CC2)c1` , please?
26.9

GET /values?readout=inhibition&item= `COc1cc(/C=C/C(=O)N2CCN(c3ccc(C)cc3)CC2)ccc1O`
38.1

Entry `COc1cc(/C=C/C(=O)NCC(=O)Nc2ccccc2C(F)(F)F)ccc1O` has what inhibition?
43.2

Which inhibition value belongs to `COc1ccc(NC(=O)CNC(=O)/C=C/c2ccc(O)c(OC)c2)cc1` ?
49.9

====

Target: Cholinesterase (Equus caballus)
Test: Inhibition of […] equine serum BuChE at 20 uM using butyryl thiocholine iodide as substrate preincubated for 30 mins followed by substrate addition and measured after 30 mins by spectrophotometry based Ellman's method relative to control
Assay type: cell-free
Details: time 60.0 min
parameter-measured: inhibition (%)
All answers are understood in %, so give the number only.

Field: example entries. Status: answers known.
[[record]]
item_smiles = "COc1cc(/C=C/C(=O)N2CCN(c3ccc(F)cc3)CC2)ccc1O"
test_value = 27.7

[[record]]
item_smiles = "COc1cc(/C=C/C(=O)NCC(=O)Nc2ccc(F)cc2)ccc1O"
test_value = 42.2


Here's the next entry for you.
So what does the record say about inhibition for `COc1cc(/C=C/C(=O)NCC(=O)Nc2ccccc2)ccc1O` ?
38.2
